- System: MILI (PIWIL2) piRISC loaded with piRNA #1 (26 nt);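 also: 1 nM active piRISC with 0.1 nM target library at 33 °C single turnover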
- MEASUREMENT_DESCRIPTION: pre-steady-state target cleavage rate (min^-1); guide: piRNA #1 5'p-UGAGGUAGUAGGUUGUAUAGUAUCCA; MIWI and MILI are mouse PIWI proteins and EfPiwi is from a freshwater sponge; tags in brackets are library labels; higher = faster piRNA-guided slicing of the target
- CONDITION_SET: auxiliary factor: 500 nM mouse GTSF1
The label depends only on pre-steady-state target cleavage rate: class 1 if it is at least 0.09, class 0 if it is smaller.

SEQUENCE_INPUT: GGAGACCAUACUAUACAACCUACAAGCUCA
LABEL: class 0
//
SEQUENCE_INPUT: GGAGAGCAUACUAUACUACCUACUACCUCA
LABEL: class 1
//
SEQUENCE_INPUT: GGAGACCUAUGUAUACAAGCUACUACCUGA
LABEL: class 0
//
SEQUENCE_INPUT: GGAGACGAUACCUAUACAACCUACUACCUCA
LABEL: class 1
//
SEQUENCE_INPUT: GGAGACCUUACUUUACAACCUACUACGUCA
LABEL: class 0
//
SEQUENCE_INPUT: GGAGACCAUACUAUCCAACCUACUACCUCA
LABEL: class 1
//
SEQUENCE_INPUT: GGAGACCUUAAUAUACAACCUACUACCUCA
LABEL: class 0
//
SEQUENCE_INPUT: GGAGACGAUACUAUACAACCUAGCUACCUCA
LABEL: class 0
//
SEQUENCE_INPUT: GGAGACCUAACUAUACAACGUACUACGUCA
LABEL: class 0
//
SEQUENCE_INPUT: GGAGACCUAUGUAUACAUCCUACUACCUGA
LABEL: class 0
//
SEQUENCE_INPUT: GGAGACCAUUCUAUACAACCUACUUCCUCA
LABEL: class 0
//
SEQUENCE_INPUT: GGAGUCGUUACUAUACAACCUACUACCUCA
LABEL: class 1
//
SEQUENCE_INPUT: GGAGAGCAUACUUUACAACCUACUACCUCA
LABEL: class 1
//
SEQUENCE_INPUT: GGAGACCUAUCUAUACAACCUACUAACCUCA
LABEL: class 1
//
SEQUENCE_INPUT: GGAGUGGAUACUAUACAACCUACUAGCCUCA
LABEL: class 1
//
SEQUENCE_INPUT: GGAGACCAUACUAUACAUCCUUCUACCUCA
LABEL: class 0
//
SEQUENCE_INPUT: GGAGACCUAUGUAUACAACCUACUACGUGA
LABEL: class 0
//
SEQUENCE_INPUT: GGAGACCUAUCUAUUCAUCCUACUACCUCA
LABEL: class 1
//
SEQUENCE_INPUT: GGAGACCUUACUAUUCAACCUACUACCACA
LABEL: class 1
//
SEQUENCE_INPUT: GGAGACGAUUCUAUACAACCAACUACCUCA
LABEL: class 0
//
SEQUENCE_INPUT: GGAGACCUAUGUAUAGUUCCUACUACCUCA
LABEL: class 0
//
SEQUENCE_INPUT: GGAGACCUAACUAUUCAACGUACUACCUCA
LABEL: class 0
//
SEQUENCE_INPUT: GGAGACCUAUGAUAUGUUCCUACUACCUGCA
LABEL: class 0
//
SEQUENCE_INPUT: GGAGACCUAACCUAUACAACCUACUACCUCA
LABEL: class 1
//
SEQUENCE_INPUT: GGAGACCAUACUAUAGAUCCUACUACCUCA
LABEL: class 1
//
SEQUENCE_INPUT: GGAGACCUAUCUAUACAACCUUCUUCCUCA
LABEL: class 0
//
SEQUENCE_INPUT: GGAGACCUUACUAUACAACCUAUUACCUCA
LABEL: class 1
